# Target: Programmed cell death protein 1/Programmed cell death 1 ligand 1 (Homo sapiens)
# Assay Procedure: Inhibition of PD1 (unknown origin)/PDL1 (unknown origin) protein-protein interaction by HTRF assay
Assign IC50 to each entry below.
Answers are plain numbers, in nM.

Compound Structure String | Target | Number
CC(=O)NCCNCc1cc(Cl)c(OCc2cccc(-c3cccc4c3CCN4CCN3CCC(O)CC3)c2C)cc1OCc1cccc(C#N)c1 | Programmed cell death protein 1/Programmed cell death 1 ligand 1 (Homo sapiens) | 322
CC(=O)NCCNCc1cc(Cl)c(OCc2cccc(-c3cccc4c3CCN4CCCN3CCC(O)CC3)c2C)cc1OCc1cccc(C#N)c1 | Programmed cell death protein 1/Programmed cell death 1 ligand 1 (Homo sapiens) | 58
CCCN1CCc2c(-c3cccc(COc4cc(OCc5cccc(C#N)c5)c(CNCCNC(C)=O)cc4Cl)c3C)cccc21 | Programmed cell death protein 1/Programmed cell death 1 ligand 1 (Homo sapiens) | 1730

Field request: IC50 | item: `Cc1c(COc2cc(OCc3cncc(C#N)c3)c(CNCCO)cc2Cl)cccc1-c1cccc2c1CCN2CCCN1CCC(O)CC1`
31

----------
# Target: Programmed cell death protein 1/Programmed cell death 1 ligand 1 (Homo sapiens, UniProt Q9NZQ7)
# Sequence (Q15116 whole entry): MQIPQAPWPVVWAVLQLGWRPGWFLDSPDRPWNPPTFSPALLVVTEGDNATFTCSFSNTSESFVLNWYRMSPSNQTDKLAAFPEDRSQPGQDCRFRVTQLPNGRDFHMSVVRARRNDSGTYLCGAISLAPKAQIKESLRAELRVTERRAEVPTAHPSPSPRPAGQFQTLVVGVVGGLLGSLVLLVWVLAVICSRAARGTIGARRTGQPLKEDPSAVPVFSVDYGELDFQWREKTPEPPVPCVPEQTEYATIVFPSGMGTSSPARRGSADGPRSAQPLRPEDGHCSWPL
# Sequence (Q9NZQ7 whole entry): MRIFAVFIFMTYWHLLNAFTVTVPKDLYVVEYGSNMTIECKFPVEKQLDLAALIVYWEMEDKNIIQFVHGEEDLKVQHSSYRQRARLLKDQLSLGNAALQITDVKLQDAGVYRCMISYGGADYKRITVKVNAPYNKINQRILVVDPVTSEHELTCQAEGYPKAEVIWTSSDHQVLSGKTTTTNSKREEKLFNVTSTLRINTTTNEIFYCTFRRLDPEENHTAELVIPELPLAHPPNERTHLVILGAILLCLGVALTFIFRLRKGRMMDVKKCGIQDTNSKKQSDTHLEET
# Assay Procedure: Inhibition of PD1 (unknown origin)/PDL1 (unknown origin) protein-protein interaction by HTRF assay
pIC50: −log10 of the molar value.
Use TRUE when the recorded pIC50 is no lower than 7; use FALSE when it is lower.

Compound Structure String | Class Assignment
CC(=O)NCCNCc1cc(Cl)c(OCc2cccc(-c3cccc4c3CCN4)c2C)cc1OCc1cccc(C#N)c1 | FALSE
CC(=O)NCCNCc1cc(Cl)c(OCc2cccc(-c3cccc4c3CCN4CCCN3CCC(O)CC3)c2C)cc1OCc1cncc(C#N)c1 | TRUE
COC(=O)[C@H](CO)NCc1cc(Cl)c(OCc2cccc(-c3cccc4c3CCN4CCCN3CCC(O)CC3)c2C)cc1OCc1cncc(C#N)c1 | TRUE
CC(=O)NCCNCc1cc(Cl)c(OCc2cccc(-c3ccc4c(c3)OCCO4)c2C)cc1OCc1cccc(C#N)c1 | TRUE
CC(=O)NCCNCc1cc(Cl)c(OCc2cccc(-c3cccc4c3CCN4C)c2C)cc1OCc1cccc(C#N)c1 | FALSE

Please tell me: is the compound `CCN1CCc2c(-c3cccc(COc4cc(OCc5cccc(C#N)c5)c(CNCCNC(C)=O)cc4Cl)c3C)cccc21` at or over 7 in terms of pIC50?
FALSE

----------
Assign EC50 to each entry below.
# Target: Programmed cell death protein 1/Programmed cell death 1 ligand 1 (Homo sapiens)
# Assay Procedure: Inhibition of PD-1/PD-L1 interaction in CHO cells expressing PD-Ll/TCR cocultured with human Jurkat cells expressing PD-1 assessed as activation of effector Jurkat T cells incubated for 6 hrs by luciferase reporter gene assay
Answers are plain numbers, in µM.

Compound Structure String | EC50 [µM]
Cc1c(COc2cc(OCc3cncc(C#N)c3)c(CN[C@@H](CO)C(=O)O)cc2Cl)cccc1-c1cccc2c1CCN2CCCN1CCC(O)CC1 | 2.9

Field request: EC50 | item: `CC(=O)NCCNCc1cc(Cl)c(OCc2cccc(-c3cccc4c3CCN4CCCN3CCC(O)CC3)c2C)cc1OCc1cncc(C#N)c1`
0.43

----------
# Target: Programmed cell death protein 1/Programmed cell death 1 ligand 1 (Homo sapiens, UniProt Q9NZQ7)
# Assay Procedure: Inhibition of PD1 (unknown origin)/PDL1 (unknown origin) protein-protein interaction by HTRF assay
Quantity: IC50 (µM)
Numbers only, in µM.

Take a look at these entries with their results.
Molecule | Quantity Unit | IC50
CC(=O)NCCNCc1cc(Cl)c(OCc2cccc(-c3cccc4c3CCN4CCCN3CCC(O)CC3)c2C)cc1OCc1cccnc1 | µM | 0.079
COCCCN1CCc2c(-c3cccc(COc4cc(OCc5cccc(C#N)c5)c(CNCCNC(C)=O)cc4Cl)c3C)cccc21 | µM | 0.905
Cc1c(COc2cc(OCc3cncc(C#N)c3)c(CNC(CO)CO)cc2Cl)cccc1-c1cccc2c1CCN2CCCN1CCC(O)CC1 | µM | 0.038

Batch request: IC50 for each of the following molecules.
1. CC(=O)NCCNCc1cc(Cl)c(OCc2cccc(-c3cccc4c3CCN4CCCN3CCC(O)CC3)c2C)cc1OCC1CCCCC1
2. CC(=O)NCCNCc1cc(Cl)c(OCc2cccc(-c3cccc4c3CCN4CCCN3CCC(O)C3)c2C)cc1OCc1cccc(C#N)c1 (configuration not stated)
3. CC(=O)NCCNCc1cc(Cl)c(OCc2cccc(-c3cccc4c3CCN4CCCN3CCOCC3)c2C)cc1OCc1cccc(C#N)c1
4. CC(=O)NCCNCc1cc(Cl)c(OCc2cccc(-c3cccc4c3CCN4CCCN3CCC3)c2C)cc1OCc1cccc(C#N)c1

1.13
0.063
0.185
0.098

----------
# Target: Programmed cell death protein 1/Programmed cell death 1 ligand 1 (Homo sapiens, UniProt Q9NZQ7)
# Assay Procedure: Inhibition of PD1 (unknown origin)/PDL1 (unknown origin) protein-protein interaction by HTRF assay
Quantity: pIC50
Numbers only, as −log10 of the molar value.

Compound | Quantity | Number
CC(=O)NCCNCc1cc(Cl)c(OCc2cccc(-c3cccc4c3CCN4CCCn3cccc3)c2C)cc1OCc1cccc(C#N)c1 | pIC50 | 5.61

Batch request: pIC50 for each of the following compounds.
1. Cc1c(COc2cc(OCc3cncc(C#N)c3)c(CN[C@@H](CO)C(=O)O)cc2Cl)cccc1-c1cccc2c1CCN2CCCN1CCC(O)CC1
2. CC(=O)NCCNCc1cc(Cl)c(OCc2cccc(-c3cccc4c3CCN4CCCN3CCC(F)C3)c2C)cc1OCc1cccc(C#N)c1 (configuration not stated)
3. CC(=O)NCCNCc1cc(Cl)c(OCc2cccc(-c3cccc4c3CCN4CCCN3CCC(O)CC3)c2C)cc1OCc1ccccc1

1: 7.92; 2: 6.69; 3: 6.35

----------
Assign IC50 to each entry below.
# Target: Programmed cell death protein 1/Programmed cell death 1 ligand 1 (Homo sapiens)
# Assay Procedure: Inhibition of PD1 (unknown origin)/PDL1 (unknown origin) protein-protein interaction by HTRF assay
Please answer using the number first and the unit second.

Compound Structure String | Result
CC(=O)NCCNCc1cc(Cl)c(OCc2cccc(-c3cccc4c3CCN4CCCN3CCCC3)c2C)cc1OCc1cccc(C#N)c1 | 77 nM
CC(=O)NCCNCc1cc(Cl)c(OCc2cccc(-c3cccc4c3CCN4CCCN3CCCCC3)c2C)cc1OCc1cccc(C#N)c1 | 197 nM

# evaluate next
Field request: IC50 | item: `CC(=O)NCCNCc1cc(Cl)c(OCc2cccc(-c3cccc4c3CCN4CCCN3CCC(F)CC3)c2C)cc1OCc1cccc(C#N)c1`
878 nM
